assayed_target: T1, Rhesus macaque CD4-HIS (Acro Biosystems, Cat. CD4-C52H7) (rhesus macaque, UniProt P16003 26-390)
T1 construct: Bought reagent; also called Rhesus CD4; rhesus CD4-HIS; not shown: His tag
T1 sequence (P16003 26-390 limits assumed): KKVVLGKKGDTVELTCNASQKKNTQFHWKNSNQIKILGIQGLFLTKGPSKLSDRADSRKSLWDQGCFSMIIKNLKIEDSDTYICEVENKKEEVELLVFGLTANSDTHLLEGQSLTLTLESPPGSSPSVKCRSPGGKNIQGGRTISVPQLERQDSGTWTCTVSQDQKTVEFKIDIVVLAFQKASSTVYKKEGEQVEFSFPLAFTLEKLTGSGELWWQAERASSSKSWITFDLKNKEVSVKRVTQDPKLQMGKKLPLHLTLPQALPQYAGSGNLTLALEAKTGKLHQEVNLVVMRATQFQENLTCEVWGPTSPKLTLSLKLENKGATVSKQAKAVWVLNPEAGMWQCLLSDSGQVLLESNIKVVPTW
test_details: BLI Octet, mAb on anti-mouse Fc sensor, rhesus CD4-HIS 25-100 nM, 1:1 global fit;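 further: purified antibodies captured at 10 µg/mL, rhesus CD4 analyte run as a three-concentration serial dilution, irrelevant antibody as reference control, one kinetic constant set per antibody from global fitting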
readout_kind: kon (M⁻¹ s⁻¹)
One number for each entry, in M⁻¹ s⁻¹.

| binder | readout_units | kon |
| --- | --- | --- |
| 75110_05E05A (antibody, V domains shown, Tested as antibody purified from AlivaMab Mouse hybridoma supernatant (captured by anti-mouse IgG Fc)) VH: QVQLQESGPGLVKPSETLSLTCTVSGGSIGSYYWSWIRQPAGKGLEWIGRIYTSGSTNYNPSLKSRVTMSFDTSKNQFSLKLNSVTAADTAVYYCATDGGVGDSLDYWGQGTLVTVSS VL: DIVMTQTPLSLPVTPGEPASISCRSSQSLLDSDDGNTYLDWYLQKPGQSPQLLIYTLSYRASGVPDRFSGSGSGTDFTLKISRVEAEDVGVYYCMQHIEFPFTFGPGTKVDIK | M⁻¹ s⁻¹ | 21000 |

May I ask what kon has been recorded for 75110_01D24A (antibody, V domains shown, Tested as antibody purified from AlivaMab Mouse hybridoma supernatant (captured by anti-mouse IgG Fc)) VH: QVQLQQWGAGLLKPSETLSLTCAVYGGSFSGYYWSWIRQPPGKGLEWIGEINHSGSTNYNPSLKSRVTISVDTSENQFSLKLNSVTAADTAVYYCARLVNWFDPWGQGTLVTVSS VL: EIQMTQSPSSVSASVGDRVTITCRASQDISNWLAWYQQKPGKAPNLLIFAASSLQTGVPSRFSGSGSGTDFTLTISSLQPDDFATYYCQQANSFPYSFGQGTNLGIK ?
190000
